Data credit: paper PMC5900865

test: Study 1B multiple-dose pharmacokinetics; assay type: in vivo, human; settings: female, human, plasma, oral, 5 mg, T1/2, day 1, female, 5 mg daily, fed, n = 5, mean (SD)
VALUE TYPE: half-life (h)
Use h as the unit, but write only the number.

Returns the measured half-life for the input molecule. Input: Cc1ccc(Sc2ccccc2N2CCNCC2)c(C)c1 [Vortioxetine]
113

----------
assay: Study 1B multiple-dose pharmacokinetics; type: in vivo, human; conditions: male, human, plasma, oral, 20 mg, AUC0–24, day 1, male, 20 mg daily, fed, n = 6, mean (SD)
VALUE TYPE: AUC(0-t) (ng·h/mL)
Kindly answer with a numeric value in ng·h/mL, unit omitted.

What AUC(0-t) value was documented for this compound, "Cc1ccc(Sc2ccccc2N2CCNCC2)c(C)c1" ?
110
